- Test system: P12-Ichikawa
- PROTOCOL_DESCRIPTION: cell viability relative to DMSO control; higher = less cytotoxic
- TEST_CONDITIONS: RPMI 5 mM glucose + 10% FBS; 48 h; 0.0211 µM
ENDPOINT_NAME: cell viability (%)
Return type: number; implicit unit %.

**Query** cell viability of Nc1ncnc2ccccc12 on P12-Ichikawa?
**Result** 13.7

Continuing:
**Query** cell viability of CC(C)c1cc(C(=O)N2Cc3ccc(CN4CCN(C)CC4)cc3C2)c(O)cc1O on P12-Ichikawa?
**Result** 105

**Query** cell viability of CC/1=C(/C(CC(=O)N1)C2=CC=C(C=C2)C(F)(F)F)C(=O)NC3=C(F)C=C4[NH]N=CC4=C3 (stereo unspecified) on P12-Ichikawa?
**Result** 100

**Query** cell viability of CCC(=C/[C@H](C)C/C=C/C(C)=C/[C@@H](C)C(=O)[C@@H](C)[C@H](O)[C@@H](C)C/C(C)=C/C(=O)O)/C=C/[C@@H]1OC(=O)C=C[C@@H]1C on P12-Ichikawa?
**Result** 127

**Query** cell viability of COCCOc1nc(-c2ccc(Cl)c(Cl)c2)n(-c2ccc(NC(=O)CCl)cc2)n1 on P12-Ichikawa?
**Result** 104

----------
- Test system: NOMO1
- PROTOCOL_DESCRIPTION: cell viability relative to DMSO control; higher = less cytotoxic
- TEST_CONDITIONS: HPLM + 10% dialyzed FBS; 48 h; 0.000781 µM
ENDPOINT_NAME: cell viability (%)
Return type: number; implicit unit %.

Before answering, review these 3 worked examples.
**Query** cell viability of CC[C@H](C)C(=O)O[C@H]1C[C@H](O)\C=C2\C=C/[C@H](C)[C@H](CC[C@@H](O)C[C@@H](O)CC(O)=O)[C@@H]12 on NOMO1?
**Result** 123

**Query** cell viability of Cn1c(=O)n(-c2ccc(C(C)(C)C#N)cc2)c2c3cc(-c4cnc5ccccc5c4)ccc3ncc21 on NOMO1?
**Result** 99.4

**Query** cell viability of c1ccc(CNc2nc(N3CCOc4ccccc43)nc3c2CCCC3)cc1 on NOMO1?
**Result** 78.1

Continuing:
**Query** cell viability of COc1cc([C@H]2Oc3cc([C@H]4Oc5cc(O)cc(O)c5C(=O)[C@@H]4O)ccc3O[C@@H]2CO)ccc1O on NOMO1?
**Result** 103

**Query** cell viability of COC(=O)C1C2CC3c4[nH]c5cc(OC)ccc5c4CCN3CC2CC(OC(=O)c2cc(OC)c(OC)c(OC)c2)C1OC (stereo not given) on NOMO1?
**Result** 108

**Query** cell viability of [O-]C(=O)C1=C(C(=C(Cl)C(=C1Cl)Cl)Cl)C/2=C/3\C=C(I)/C(=O)/C(=C3OC4=C2C=C(I)C(=C4I)[O-])I on NOMO1?
**Result** 101

**Query** cell viability of COc1ncnc(N[S+](=O)([O-])c2ccc(N)cc2)c1OC on NOMO1?
**Result** 111

**Query** cell viability of ClC1=CC\2=C(OC3=C(C=CC=C3)\N=C2N4CCNCC4)C=C1 on NOMO1?
**Result** 106

**Query** cell viability of CC[C@]12\C=C/CN3CC[C@]4([C@@H](N(C)C5=CC(=C(C=C45)[C@]6(C[C@H]7C[C@H](CN(C7)CC8=C6[NH]C9=C8C=CC=C9)C(C)(F)F)C(=O)OC)OC)[C@](O)([C@@H]1OC(C)=O)C(=O)OC)[C@H]23 on NOMO1?
**Result** 102

**Query** cell viability of CC1(N2CCC(n3c([C@@H]4CCCNC4)nc4ccccc43)CC2)CCCCCCC1 on NOMO1?
**Result** 77.1

**Query** cell viability of O=C(Nc1ncc(SCCN2CCCC2)s1)[C@]1(c2ccc([S+](=O)([O-])C3CC3)cc2)C[C@H]1C1CCCCC1 on NOMO1?
**Result** 111

**Query** cell viability of COc1ccc(Nc2nccc(NCCO)n2)cc1 on NOMO1?
**Result** 75.3

**Query** cell viability of NC(=O)c1cccc2nc(-c3ccc([C@H]4CCCN4)cc3F)[nH]c12 on NOMO1?
**Result** 112

**Query** cell viability of CC[C@@]1(O)C(=O)OC\C2=C1\C=C\3N(CC4=C3N=C5C=CC=CC5=C4)C2=O on NOMO1?
**Result** 122

**Query** cell viability of CN1CCC[C@@H]1CCO[C@](C)(c1ccccc1)c1ccc(Cl)cc1 on NOMO1?
**Result** 96

**Query** cell viability of N#Cc1ccnc(Nc2cc(C3CCN(C4COC4)CC3)cc(N3CCC(F)(F)C3)n2)c1 on NOMO1?
**Result** 121

**Query** cell viability of CC/1=C(/C(CC(=O)N1)C2=CC=C(C=C2)C(F)(F)F)C(=O)NC3=C(F)C=C4[NH]N=CC4=C3 (stereo not given) on NOMO1?
**Result** 94.2

**Query** cell viability of Cc1[nH]c(/C=C2\C(=O)Nc3ccccc32)c(C)c1CCC(=O)O on NOMO1?
**Result** 92.3

**Query** cell viability of COc1cccc([C@@H](C)NCCCc2ccccc2Cl)c1 on NOMO1?
**Result** 83

**Query** cell viability of CCCCC(C=O)NC(=O)C(CC(C)C)NC(=O)OCc1ccccc1 (stereo not given) on NOMO1?
**Result** 104

----------
cell viability by entry:
- Test system: SEM cells
- PROTOCOL_DESCRIPTION: cell viability relative to DMSO control; higher = less cytotoxic
- TEST_CONDITIONS: HPLM + 10% dialyzed FBS; 48 h; 15.4 µM

**Query** Return reported cell viability; argument: CN(C)CCOc1ccc(-c2nc(-c3ccncc3)c(-c3ccc4c(c3)CC/C4=N\O)[nH]2)cc1
**Result** 109%

**Query** Return reported cell viability; argument: CN[C@@H]1Cc2cccc3[nH]c(=O)n(c23)C1
**Result** 92.8%

**Query** Return reported cell viability; argument: O=C(Nc1ncc(-c2cc(C(F)F)nn2-c2c(Cl)cccc2Cl)s1)C1CC1
**Result** 21.9%

**Query** Return reported cell viability; argument: Cc1cc(Nc2nc(N[C@@H](C)c3ccc(F)cc3)c(C#N)cc2F)n[nH]1
**Result** 15%

Note: attention shifts to another entry.
**Query** Return reported cell viability; argument: CC1=C(CC(=O)O)c2cc(F)ccc2/C1=C\c1ccc([S+](C)[O-])cc1 (stereo not given)
**Result** 104%

----------
- Tested on: SEM cells
- PROTOCOL_DESCRIPTION: cell viability relative to DMSO control; higher = less cytotoxic
- TEST_CONDITIONS: RPMI 5 mM glucose + 10% FBS; 48 h; 0.0211 µM
cell viability by entry:
Return type: number; implicit unit %.

Before answering, review these 6 worked examples.
**Query** Return reported cell viability; argument: C[C@]12CC[C@H]3[C@@H](CCC/4=C/C(=O)CC[C@]34C)[C@@H]1CC[C@@H]2O
**Result** 112

**Query** Return reported cell viability; argument: O=C(O)/C=C/c1ccc(O)c(O)c1
**Result** 114

**Query** Return reported cell viability; argument: CC1(C)CNc2cc(NC(=O)c3cccnc3NCc3ccncc3)ccc21
**Result** 79.4

**Query** Return reported cell viability; argument: COCCOc1nc(-c2ccc(Cl)c(Cl)c2)n(-c2ccc(NC(=O)CCl)cc2)n1
**Result** 89.9

**Query** Return reported cell viability; argument: Cn1c(=O)n(-c2ccc(C(C)(C)C#N)cc2)c2c3cc(-c4cnc5ccccc5c4)ccc3ncc21
**Result** 64.3

**Query** Return reported cell viability; argument: CCCCCCCCCC(=O)N[C@@H](Cc1c[nH]c2ccccc12)C(=O)N[C@H](CC(N)=O)C(=O)N[C@@H](CC(=O)O)C(=O)N[C@@H]1C(=O)NCC(=O)N[C@@H](CCCN)C(=O)N[C@@H](CC(=O)O)C(=O)N[C@H](C)C(=O)N[C@@H](CC(=O)O)C(=O)NCC(=O)N[C@H](CO)C(=O)N[C@@H]([C@@H](C)CC(=O)O)C(=O)N[C@@H](CC(=O)c2ccccc2N)C(=O)O[C@@H]1C
**Result** 114

Continuing:
**Query** Return reported cell viability; argument: COc1ccc(Nc2nccc(NCCO)n2)cc1
**Result** 87.4

----------
- Test system: P12-Ichikawa
- PROTOCOL_DESCRIPTION: cell viability relative to DMSO control; higher = less cytotoxic
- TEST_CONDITIONS: RPMI 5 mM glucose + 10% dialyzed FBS; 48 h; 15.4 µM
cell viability by entry:
Return type: number; implicit unit %.

**Query** Return reported cell viability; argument: Oc1cccc(-c2nc(N3CCOCC3)c3oc4ncccc4c3n2)c1
**Result** 108

**Query** Return reported cell viability; argument: Nc1cccc2c1CN([C@H]1CCC(=O)NC1=O)C2=O
**Result** 63.3

**Query** Return reported cell viability; argument: Cc1cnc(C(=O)O)c[n+]1[O-]
**Result** 109

**Query** Return reported cell viability; argument: O=C1Nc2ccc(I)cc2/C1=C/c1cc(Br)c(O)c(Br)c1
**Result** 93.4

**Query** Return reported cell viability; argument: CN1\N=C(N)/C2=C[N]([C@@H]3O[C@H](CO[P](O)(O)=O)[C@@H](O)[C@H]3O)C4=C2C1=NC=N4
**Result** 51

**Query** Return reported cell viability; argument: NC(=O)c1cccc2cn(-c3ccc([C@@H]4CCCNC4)cc3)nc12
**Result** 88.4
